From: patent US4696929A

- TEST SYSTEM: platelet cyclooxygenase (Oryctolagus cuniculus)
- Construct: 1 ml of intact washed platelet suspensions were pre-incubated with test compounds; endogenous in cells
- Sequence (O97554 31-606): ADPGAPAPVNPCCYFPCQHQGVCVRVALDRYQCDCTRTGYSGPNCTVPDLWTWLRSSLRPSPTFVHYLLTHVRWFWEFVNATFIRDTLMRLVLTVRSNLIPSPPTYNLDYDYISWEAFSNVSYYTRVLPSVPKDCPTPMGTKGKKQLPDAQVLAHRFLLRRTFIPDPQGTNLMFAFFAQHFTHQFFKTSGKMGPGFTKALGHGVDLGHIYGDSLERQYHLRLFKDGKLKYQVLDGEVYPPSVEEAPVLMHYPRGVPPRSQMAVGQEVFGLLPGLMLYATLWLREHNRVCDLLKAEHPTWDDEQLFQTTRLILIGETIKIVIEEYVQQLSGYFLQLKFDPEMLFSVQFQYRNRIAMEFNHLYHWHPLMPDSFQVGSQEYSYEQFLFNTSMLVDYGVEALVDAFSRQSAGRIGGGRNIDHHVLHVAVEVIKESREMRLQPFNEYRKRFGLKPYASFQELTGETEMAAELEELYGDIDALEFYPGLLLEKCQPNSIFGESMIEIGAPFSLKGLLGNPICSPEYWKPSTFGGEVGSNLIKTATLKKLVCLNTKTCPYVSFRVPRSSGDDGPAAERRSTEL
- ASSAY INFO: Assay of platelet cyclooxygenase (intact washed platelets, TXB2 formation)
- EXPERIMENTAL SETUP: 3 min pre-incubation, then [1-14C]arachidonic acid 5 min, 37° C., TXB2 counted
pIC50: −log10 of the molar value.
METRIC NAME: pIC50

Here's what some known entries look like.
COc1ccc2c(c1)c(CC(=O)OC(C)(C)CN1CCN(CCCOC3CCCCO3)CC1)c(C)n2C(=O)c1ccc(Cl)cc1 (stereo not drawn) [Example 13]	4.65
COc1ccc2c(c1)c(CC(=O)OC(C)CN1CCN(CCCCCO)CC1)c(C)n2C(=O)c1ccc(Cl)cc1 (stereo not drawn) [Example 10]	4.64
COc1ccc2c(c1)c(CC(=O)OC(C)CN1CCN(CCCO)CC1)c(C)n2C(=O)c1ccc(Cl)cc1 (stereo not drawn) [Example 8]	4.51

(a) COc1ccc2c(c1)c(CC(=O)OC(CN1CCN(CCO)CC1)c1ccccc1)c(C)n2C(=O)c1ccc(Cl)cc1 (stereo not drawn) [Example 9]
(b) COc1ccc2c(c1)c(CC(=O)OC(C)CN1CCN(CCCCCCO)CC1)c(C)n2C(=O)c1ccc(Cl)cc1 (stereo not drawn) [Example 11]
(c) COc1ccc2c(c1)c(CC(=O)OC(CN1CCN(CCCO)CC1)c1ccccc1)c(C)n2C(=O)c1ccc(Cl)cc1 (stereo not drawn) [Example 7]
// query Sort the compounds on pIC50; start with the lowest figure. Arrange the labels as the request states and list them.
// result b, c, a
(b: 4.39, c: 4.69, a: 5.04)
